Source: the supplement of paper PMC11061612

# Tested on: WM793B (Melanoma);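 note: after 72 h of two-drug dosing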
# assay.comment: Bliss excess, mean over the matrix (fraction); higher = more synergy
measured.metric: Bliss excess
Give the figure by itself; no unit, no explanation.

Study these solved cases before continuing.
>  <compound>
NC1(C(=O)N[C@@H](CCO)c2ccc(Cl)cc2)CCN(c2ncnc3[nH]ccc23)CC1 [Capivasertib] + CCN(CCO)CCCOc1ccc2c(Nc3cc(CC(=O)Nc4cccc(F)c4)[nH]n3)ncnc2c1 [AZD2811] (first compound max 10 µM, 7x7, partner max 1 µM)

>  <Bliss excess>
0.002

$$$$
>  <compound>
CCN(CCO)CCCOc1ccc2c(Nc3cc(CC(=O)Nc4cccc(F)c4)[nH]n3)ncnc2c1 [AZD2811] + O=C(c1cc(Cc2n[nH]c(=O)c3ccccc23)ccc1F)N1CCN(C(=O)C2CC2)CC1 [Olaparib] (first compound max 1 µM, 7x7, partner max 10 µM)

>  <Bliss excess>
-0.015

$$$$
>  <compound>
COc1cccc(OCCCN)c1-c1cc(Nc2cnc(C#N)cn2)n[nH]1 [Prexasertib] + CCc1c2c(nc3ccc(O)cc13)-c1cc3c(c(=O)n1C2)COC(=O)[C@]3(O)CC [SN-38] (first compound max 1 µM, 7x7, partner max 0.3 µM)

>  <Bliss excess>
-0.0489

$$$$

Consider now this further compound.
Prompt: Tell me the measured Bliss excess of Cc1c2c(nn1C)CSCc1cc(n(C)n1)CSc1cc(c3ccccc3c1)OCCCc1c(C(=O)O)n(C)c3c-2c(Cl)ccc13 [AZD5991] + C[C@@H]1COCCN1C2=NC(=NC(=C2)C3(CC3)[S@](=N)(=O)C)C4=C5C=CNC5=NC=C4 [AZD6738] (first compound max 1 µM, 7x7, partner max 10 µM) , please.
Response: 0.0503

====

# Tested on: NCI-H2342 (Lung Adenocarcinoma)
# assay.comment: combination Emax (second highest fraction inhibited in the dose matrix, 72 h); higher = more inhibition; extreme values may be limits of the assay
combination Emax values for the compounds below.
Give the figure by itself; no unit, no explanation.

>  <compound>
Cn1cnc2c(F)c(Nc3ccc(Br)cc3Cl)c(C(=O)NOCCO)cc21 [Selumetinib] + CC(C)n1c(=O)n(C)c2cnc3cc(F)c(-c4ccc(OCCCN5CCCCC5)nc4)cc3c21 [AZD1390] (first compound max 10 µM, 7x7, partner max 0.3 µM)

>  <test.value>
0.0339

$$$$
>  <compound>
CN(C)CCCOc1ccc(-c2ccc3ncc4c(c3c2)n(C2CCOCC2)c(=O)n4C)cn1 [AZD0156] + C=CCn1c(=O)c2cnc(Nc3ccc(N4CCN(C)CC4)cc3)nc2n1-c1cccc(C(C)(C)O)n1 [AZD1775] (first compound max 1 µM, partner max 1 µM)

>  <test.value>
0.162

$$$$

Prompt: Tell me the measured combination Emax of CN(CCO)CC[C@H](CSc1ccccc1)Nc1ccc(S(=O)(=O)NC(=O)c2ccc(N3CCC([C@@H](O)c4ccccc4-c4ccc(Cl)cc4)CC3)cc2)cc1S(=O)(=O)C(F)(F)F [AZD4320] + CS(=O)(=O)CCNCc1ccc(-c2ccc3ncnc(Nc4ccc(OCc5cccc(F)c5)c(Cl)c4)c3c2)o1 [Lapatinib] (first compound max 1 µM, 7x7, partner max 10 µM) , please.
Response: 0.368

====

# System: RERF-LC-Sq1 (Squamous Cell Lung Carcinoma)
# assay.comment: combination Emax (second highest fraction inhibited in the dose matrix, 72 h); higher = more inhibition; extreme values may be limits of the assay
combination Emax values for the compounds below.
Give the figure by itself; no unit, no explanation.

>  <compound>
C[C@@H](c1ccc2nccn2c1)n1nnc2ncc(-c3cnn(C)c3)nc21 [Savolitinib] + CN(CC[C@H](CSC1=CC=CC=C1)NC2=C(C=C(C=C2)S(=O)(=O)NC(=O)C3=CC=C(C=C3)N4CCC(CC4)[C@H](C5=CC=CC=C5C6=CC=C(C=C6)Cl)O)S(=O)(=O)C(F)(F)F)CCO [AZD4320] (first compound max 1 µM, 7x7, partner max 1 µM)

>  <measured.metric>
combination Emax

>  <test.value>
0.238

$$$$

Prompt: Tell me the measured combination Emax of COc1cccc(OCCCN)c1-c1cc(Nc2cnc(C#N)cn2)n[nH]1 [Prexasertib] + C[C@@H]1COCCN1C2=NC(=NC(=C2)C3(CC3)[S@](=N)(=O)C)C4=C5C=CNC5=NC=C4 [AZD6738] (first compound max 1 µM, 7x7, partner max 10 µM) , please.
Response: 0.899
